test system: food intake (spaghetti); assay: Anorexia: inhibition of food intake (spaghetti) in screening test in the mouse; assay type: in vivo; settings: 10 mg kg^-1 p.os.
readout.type: Anorexia: percentage inhibition of food intake (spaghetti) (%)
Report as a plain number; the unit % is understood.

Q: // lookup Anorexia: percentage inhibition of food intake (spaghetti) for COc1cc(N)c(Cl)cc1C(=O)NC1CCN(Cc2ccccc2)CC1.Cl [Clebopride hydrochloride, reference compound]
Ans: 84

Q: // lookup Anorexia: percentage inhibition of food intake (spaghetti) for COc1cc(N)c(Cl)cc1C(=O)N(C)C1CCN(C(C)c2ccccc2)CC1 (stereo not drawn)
Ans: 0

Q: // lookup Anorexia: percentage inhibition of food intake (spaghetti) for COc1cc(N)c(Cl)cc1C(=O)N(C)C1CCN(Cc2ccccc2)CC1.Cl
Ans: 0

Q: // lookup Anorexia: percentage inhibition of food intake (spaghetti) for COc1cc(N)c(Cl)cc1C(=O)NC1CC(C)N(Cc2ccccc2)C(C)C1 (stereo not drawn)
Ans: 89

Q: // lookup Anorexia: percentage inhibition of food intake (spaghetti) for CCN(C(=O)c1cc(Cl)c(N)cc1OC)C1CCN(Cc2ccccc2)CC1.Cl
Ans: 0

Q: // lookup Anorexia: percentage inhibition of food intake (spaghetti) for COc1cc(N)c(Cl)cc1C(=O)NC1CCN(Cc2ccccc2)CC1C (stereo not drawn)
Ans: 34
